Assay: AUClast in Sprague-Dawley rat plasma at 1 umol/kg, it by HPLC-MS/MS method
Type: ADME, cell-free
Details: inhaled or intranasal
# AUC(0-t) per record follows
METRIC NAME: AUC(0-t) (µM·h)

COMPOUND	METRIC NAME	U	NUMBER
C[C@@H]1C[C@H]2[C@@H]3C[C@H](F)C4=CC(=O)C=C[C@]4(C)[C@@]3(F)[C@@H](O)C[C@]2(C)[C@@]1(OC(=O)c1ccco1)C(=O)SCF [FLUTICASONE FUROATE]	AUC(0-t)	µM·h	0.05
C[C@]12C=CC(=O)C=C1[C@@H](F)C[C@H]1[C@@H]3C[C@H]4CN(Cc5cccc(Cl)c5)C[C@@]4(C(=O)CO)[C@@]3(C)C[C@H](O)[C@@]12F.Cl	AUC(0-t)	µM·h	0.12
C[C@]12C=CC(=O)C=C1[C@@H](F)C[C@H]1[C@@H]3C[C@H]4CN(Cc5cccc(Cl)c5)C[C@@]4(C(=O)CO)[C@@]3(C)C[C@H](O)[C@@]12F	AUC(0-t)	µM·h	0.118
CCCC1O[C@@H]2C[C@H]3[C@@H]4CCC5=CC(=O)C=C[C@]5(C)[C@H]4[C@@H](O)C[C@]3(C)[C@]2(C(=O)CO)O1 (some centres undefined) [BUDESONIDE]	AUC(0-t)	µM·h	11.6

###

Please consider the recorded Ki for Glucocorticoid receptor (Homo sapiens) in what follows.
METRIC NAME: Ki (nM)

In [3]: df
Out[3]:
                               entry_smiles                          assayed_system  number
0  C[C@]12C=CC(=O)C=C1[C@@H](F)C[C@H]1[C@@H]3C[C@H]4CN(C(=O)OCc5ccccc5)C[C@@]4(C(=O)CO)[C@@]3(C)C[C@H](O)[C@@]12F  Glucocorticoid receptor (Homo sapiens)    0.66
1  C[C@]12C=CC(=O)C=C1[C@@H](F)C[C@H]1[C@@H]3C[C@H]4CN(Cc5ccc6ccccc6n5)C[C@@]4(C(=O)CO)[C@@]3(C)C[C@H](O)[C@@]12F  Glucocorticoid receptor (Homo sapiens)    0.71
2  C[C@]12C=CC(=O)C=C1[C@@H](F)C[C@H]1[C@@H]3C[C@H]4CN(Cc5ccccc5)C[C@@]4(C(=O)CF)[C@@]3(C)C[C@H](O)[C@@]12F  Glucocorticoid receptor (Homo sapiens)    0.52
3  C[C@]12C=CC(=O)C=C1[C@@H](F)C[C@H]1[C@@H]3C[C@H]4CN(Cc5cccc(Cl)c5)C[C@@]4(C(=O)OCF)[C@@]3(C)C[C@H](O)[C@@]12F  Glucocorticoid receptor (Homo sapiens)    0.57
4  COC(=O)[C@@]12CN(Cc3ccccc3)C[C@@H]1C[C@H]1[C@@H]3C[C@H](F)C4=CC(=O)C=C[C@]4(C)[C@@]3(F)[C@@H](O)C[C@@]12C  Glucocorticoid receptor (Homo sapiens)    0.71
5  C[C@]12C=CC(=O)C=C1[C@@H](F)C[C@H]1[C@@H]3C[C@H]4CN(S(=O)(=O)c5cccs5)C[C@@]4(C(=O)CO)[C@@]3(C)C[C@H](O)[C@@]12F  Glucocorticoid receptor (Homo sapiens)    0.66

###

Experiment: AUClast in Sprague-Dawley rat lung at 1 umol/kg, it by HPLC-MS/MS method
Format: ADME, tissue-based
Settings: in vivo, inhaled_or_intranasal

MOLECULE	U	AUClast
CCCC1O[C@@H]2C[C@H]3[C@@H]4CCC5=CC(=O)C=C[C@]5(C)[C@H]4[C@@H](O)C[C@]3(C)[C@]2(C(=O)CO)O1 (some centres undefined) [BUDESONIDE]	nmol·h/g	110.03
C[C@]12C=CC(=O)C=C1[C@@H](F)C[C@H]1[C@@H]3C[C@H]4CN(Cc5cccc(Cl)c5)C[C@@]4(C(=O)CO)[C@@]3(C)C[C@H](O)[C@@]12F.Cl	nmol·h/g	9
C[C@]12C=CC(=O)C=C1[C@@H](F)C[C@H]1[C@@H]3C[C@H]4CN(Cc5cccc(Cl)c5)C[C@@]4(C(=O)CO)[C@@]3(C)C[C@H](O)[C@@]12F	nmol·h/g	871.2
C[C@@H]1C[C@H]2[C@@H]3C[C@H](F)C4=CC(=O)C=C[C@]4(C)[C@@]3(F)[C@@H](O)C[C@]2(C)[C@@]1(OC(=O)c1ccco1)C(=O)SCF [FLUTICASONE FUROATE]	nmol·h/g	1049

###

Assay: physchem
Description: Dissociation constant, pKa of the compound
# pKa per record follows
METRIC NAME: pKa

In [3]: df
Out[3]:
                               entry_smiles  number
0  C[C@]12C=CC(=O)C=C1[C@@H](F)C[C@H]1[C@@H]3C[C@H]4CN(Cc5ccccc5)C[C@@]4(C(=O)NCc4ccccc4)[C@@]3(C)C[C@H](O)[C@@]12F    7.05
1  C[C@]12C=CC(=O)C=C1[C@@H](F)C[C@H]1[C@@H]3C[C@H]4CN(CC5CC5)C[C@@]4(C(=O)CO)[C@@]3(C)C[C@H](O)[C@@]12F    7.83
2  C[C@]12C=CC(=O)C=C1[C@@H](F)C[C@H]1[C@@H]3C[C@H]4CN(Cc5ccccc5)C[C@@]4(C(=O)CF)[C@@]3(C)C[C@H](O)[C@@]12F    6.87

###

# pKa per record follows
Assay: physchem
METRIC NAME: pKa

>>> df
                               entry_smiles  metric_name  result
0  C[C@]12C=CC(=O)C=C1[C@@H](F)C[C@H]1[C@@H]3C[C@H]4CN(Cc5ccc(Cl)cc5)C[C@@]4(C(=O)CO)[C@@]3(C)C[C@H](O)[C@@]12F          pKa    6.72
1  C[C@]12C=CC(=O)C=C1[C@@H](F)C[C@H]1[C@@H]3C[C@H]4CN(Cc5ccc6ccccc6n5)C[C@@]4(C(=O)CO)[C@@]3(C)C[C@H](O)[C@@]12F          pKa    3.42
2  COC(=O)[C@@]12CN(Cc3ccccc3)C[C@@H]1C[C@H]1[C@@H]3C[C@H](F)C4=CC(=O)C=C[C@]4(C)[C@@]3(F)[C@@H](O)C[C@@]12C          pKa    7.12

###

Target: Glucocorticoid receptor (Homo sapiens)
Sequence (P04150 whole entry): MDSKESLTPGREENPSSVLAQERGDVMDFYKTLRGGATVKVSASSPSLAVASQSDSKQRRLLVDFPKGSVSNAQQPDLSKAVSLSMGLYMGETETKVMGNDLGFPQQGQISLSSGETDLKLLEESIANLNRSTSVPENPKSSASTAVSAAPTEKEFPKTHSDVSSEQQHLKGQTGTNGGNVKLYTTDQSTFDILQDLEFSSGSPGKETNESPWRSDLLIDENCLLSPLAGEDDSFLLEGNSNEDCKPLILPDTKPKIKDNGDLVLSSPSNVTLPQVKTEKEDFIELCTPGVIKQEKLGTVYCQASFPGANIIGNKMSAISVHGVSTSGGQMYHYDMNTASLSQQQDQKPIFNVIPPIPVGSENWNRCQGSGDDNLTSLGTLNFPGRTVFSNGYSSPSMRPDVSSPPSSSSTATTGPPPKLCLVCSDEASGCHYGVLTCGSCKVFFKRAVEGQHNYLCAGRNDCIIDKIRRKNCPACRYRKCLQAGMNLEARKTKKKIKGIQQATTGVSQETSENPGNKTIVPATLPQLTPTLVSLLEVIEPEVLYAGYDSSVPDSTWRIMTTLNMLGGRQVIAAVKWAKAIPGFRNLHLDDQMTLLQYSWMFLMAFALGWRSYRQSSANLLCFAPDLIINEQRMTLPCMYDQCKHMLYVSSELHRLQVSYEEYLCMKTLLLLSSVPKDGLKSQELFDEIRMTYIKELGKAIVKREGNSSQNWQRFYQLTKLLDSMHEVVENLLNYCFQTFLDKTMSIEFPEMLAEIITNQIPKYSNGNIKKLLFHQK
# EC50 per record follows
METRIC NAME: EC50

In [3]: df
Out[3]:
                               entry_smiles   result
0  Cc1ccc(CN2C[C@@H]3C[C@H]4[C@@H]5C[C@H](F)C6=CC(=O)C=C[C@]6(C)[C@@]5(F)[C@@H](O)C[C@]4(C)[C@]3(C(=O)CO)C2)cc1   8.4 nM
1  C[C@]12C=CC(=O)C=C1[C@@H](F)C[C@H]1[C@@H]3C[C@H]4CN(c5cccc(Cl)c5)C[C@@]4(C(=O)CO)[C@@]3(C)C[C@H](O)[C@@]12F   5.8 nM
2  C[C@]12C=CC(=O)C=C1[C@@H](F)C[C@H]1[C@@H]3C[C@H]4CN(c5ccc(Cl)cc5)C[C@@]4(C(=O)CO)[C@@]3(C)C[C@H](O)[C@@]12F   8.5 nM
3  CN(C)C(=O)[C@@]12CN(Cc3ccccc3)C[C@@H]1C[C@H]1[C@@H]3C[C@H](F)C4=CC(=O)C=C[C@]4(C)[C@@]3(F)[C@@H](O)C[C@@]12C  40.3 nM
4  C[C@]12C=CC(=O)C=C1[C@@H](F)C[C@H]1[C@@H]3C[C@H]4CN(Cc5ccc6ccccc6n5)C[C@@]4(C(=O)CO)[C@@]3(C)C[C@H](O)[C@@]12F  31.2 nM
